Test system: CSNK1G3;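 note: KINOMEscan kinase panel screen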
Settings: concentration: 1 μM, replicates: in singlicate; n = 1

>  <COMPOUND>
Cc1ccc(C(=O)Nc2ccc(Nc3ccnc4cc(-c5nccs5)ccc34)cc2O)cc1.Cl [GW494702]

>  <%Inh [%]>
4

$$$$
>  <COMPOUND>
Cc1ccc(C)c(NC(=O)NC2CCN(c3ccnc(Nc4ccc(F)cc4)n3)C2)c1 (centres unmarked) [GSK1379720]

>  <%Inh [%]>
12

$$$$
>  <COMPOUND>
CCc1ccc(-c2ccc3c(c2)-c2c(cnn2C)S(=O)(=O)N3C)cc1

>  <%Inh [%]>
0

$$$$
>  <COMPOUND>
Cl.Cl.NCC(NCc1ccc(-c2ccnc3[nH]ccc23)s1)c1ccccc1 (centres unmarked) [GSK1321565]

>  <%Inh [%]>
33

$$$$
>  <COMPOUND>
Cl.c1ccc(-c2ccc3c(Nc4ccc5[nH]ccc5c4)ccnc3c2)nc1 [GW440138]

>  <%Inh [%]>
25

$$$$
>  <COMPOUND>
CN(c1ccc(NC(=O)Nc2cc(C(F)(F)F)ccc2F)cc1)c1ccnc(Nc2ccc(S(N)(=O)=O)cc2)n1 [GW809893]

>  <%Inh [%]>
18

$$$$
>  <COMPOUND>
Cn1cc(-c2[nH]c3cc(NC(=O)[C@H](N)C4CCCCC4)cc4c3c2C=NNC4=O)cn1

>  <%Inh [%]>
2

$$$$
>  <COMPOUND>
CCS(=O)(=O)c1ccc(OC)c(Nc2nccc(-c3c(-c4cccc(NC(=O)c5c(F)cccc5F)c4)nn4ncccc34)n2)c1 [GSK326180]

>  <%Inh [%]>
15

$$$$

# credit: paper PMC5540273
